# reported AUC; entries follow
# TEST_SUMMARY: AUC in CD1(ICR) mouse at 10 mg/kg, ip
# Assay type: ADME, organism-based
# Set-up: dose 10 mg/kg, route intraperitoneal
# COND: plasma

[
  {
    "SMILES_CODE": "NC(=O)[C@@H]1[C@H](Nc2nc(Nc3cnn([C@@H]4CCCNC4)c3)ncc2Cl)[C@H]2C=C[C@@H]1C2",
    "AUC, µM·h": 15.7
  },
  {
    "SMILES_CODE": "NC(=O)[C@@H]1[C@H](Nc2nc(Nc3cnn(C[C@H]4CCCN4)c3)ncc2Cl)[C@H]2C=C[C@@H]1C2",
    "AUC, µM·h": 12.7
  },
  {
    "SMILES_CODE": "NC(=O)[C@@H]1[C@H](Nc2nc(Nc3cnn(C4CCNCC4)c3)ncc2Cl)[C@H]2C=C[C@@H]1C2",
    "AUC, µM·h": 2
  },
  {
    "SMILES_CODE": "CCn1cc(Nc2ncc(Cl)c(N[C@H]3[C@@H](C(N)=O)[C@@H]4C=C[C@H]3C4)n2)cn1",
    "AUC, µM·h": 2.54
  },
  {
    "SMILES_CODE": "Cn1cc(Nc2ncc(Cl)c(N[C@H]3[C@@H](C(N)=O)[C@@H]4C=C[C@H]3C4)n2)cn1",
    "AUC, µM·h": 11.1
  },
  {
    "SMILES_CODE": "CNC(=O)Cn1cc(Nc2ncc(Cl)c(N[C@H]3[C@@H](C(N)=O)[C@@H]4C=C[C@H]3C4)n2)cn1",
    "AUC, µM·h": 6.68
  },
  {
    "SMILES_CODE": "NC(=O)[C@@H]1[C@H](Nc2nc(Nc3cnn(CCO)c3)ncc2Cl)[C@H]2C=C[C@@H]1C2",
    "AUC, µM·h": 5
  },
  {
    "SMILES_CODE": "NC(=O)Cn1cc(Nc2ncc(Cl)c(N[C@H]3[C@@H](C(N)=O)[C@@H]4C=C[C@H]3C4)n2)cn1",
    "AUC, µM·h": 15
  }
]

----------
# SYSTEM_TESTED: UniProt P36888
# Sequence (P36888 whole entry): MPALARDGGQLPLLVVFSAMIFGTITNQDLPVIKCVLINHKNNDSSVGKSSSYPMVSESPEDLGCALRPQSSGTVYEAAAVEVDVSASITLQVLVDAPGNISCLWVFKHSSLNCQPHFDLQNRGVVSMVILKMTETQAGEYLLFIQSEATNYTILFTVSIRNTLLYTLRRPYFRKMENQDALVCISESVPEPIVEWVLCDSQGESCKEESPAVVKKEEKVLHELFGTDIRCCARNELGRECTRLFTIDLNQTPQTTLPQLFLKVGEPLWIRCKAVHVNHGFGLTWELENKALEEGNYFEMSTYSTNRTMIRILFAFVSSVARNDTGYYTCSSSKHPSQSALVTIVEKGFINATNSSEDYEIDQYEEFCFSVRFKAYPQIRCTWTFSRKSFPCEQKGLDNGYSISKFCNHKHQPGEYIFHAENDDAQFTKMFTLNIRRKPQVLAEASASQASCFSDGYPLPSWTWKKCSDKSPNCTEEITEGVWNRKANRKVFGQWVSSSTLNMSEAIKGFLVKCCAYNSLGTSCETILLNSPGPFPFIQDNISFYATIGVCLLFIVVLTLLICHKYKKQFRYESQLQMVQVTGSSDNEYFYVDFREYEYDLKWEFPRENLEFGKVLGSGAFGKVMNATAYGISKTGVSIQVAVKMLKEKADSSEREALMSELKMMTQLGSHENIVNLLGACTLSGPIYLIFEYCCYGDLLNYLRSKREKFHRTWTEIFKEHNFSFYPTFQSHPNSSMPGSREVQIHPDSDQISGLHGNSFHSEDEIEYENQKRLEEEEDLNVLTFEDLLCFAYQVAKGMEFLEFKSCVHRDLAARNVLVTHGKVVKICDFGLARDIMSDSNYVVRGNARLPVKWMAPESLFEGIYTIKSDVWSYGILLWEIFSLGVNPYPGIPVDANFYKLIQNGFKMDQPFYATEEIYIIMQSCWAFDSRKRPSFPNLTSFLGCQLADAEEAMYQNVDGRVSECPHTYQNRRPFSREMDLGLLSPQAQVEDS
pIC50: −log10 of the molar value.

[
  {
    "SMILES_CODE": "Cn1cc(Nc2ncc(Br)c(N[C@H]3[C@@H](C(N)=O)[C@@H]4C=C[C@H]3C4)n2)cn1",
    "pIC50": 9.00
  }
]

----------
This listing pairs molecules with measured IC50.
# SYSTEM_TESTED: Vascular endothelial growth factor receptor 2 (Homo sapiens, UniProt P35968)
# Sequence (P35968 whole entry): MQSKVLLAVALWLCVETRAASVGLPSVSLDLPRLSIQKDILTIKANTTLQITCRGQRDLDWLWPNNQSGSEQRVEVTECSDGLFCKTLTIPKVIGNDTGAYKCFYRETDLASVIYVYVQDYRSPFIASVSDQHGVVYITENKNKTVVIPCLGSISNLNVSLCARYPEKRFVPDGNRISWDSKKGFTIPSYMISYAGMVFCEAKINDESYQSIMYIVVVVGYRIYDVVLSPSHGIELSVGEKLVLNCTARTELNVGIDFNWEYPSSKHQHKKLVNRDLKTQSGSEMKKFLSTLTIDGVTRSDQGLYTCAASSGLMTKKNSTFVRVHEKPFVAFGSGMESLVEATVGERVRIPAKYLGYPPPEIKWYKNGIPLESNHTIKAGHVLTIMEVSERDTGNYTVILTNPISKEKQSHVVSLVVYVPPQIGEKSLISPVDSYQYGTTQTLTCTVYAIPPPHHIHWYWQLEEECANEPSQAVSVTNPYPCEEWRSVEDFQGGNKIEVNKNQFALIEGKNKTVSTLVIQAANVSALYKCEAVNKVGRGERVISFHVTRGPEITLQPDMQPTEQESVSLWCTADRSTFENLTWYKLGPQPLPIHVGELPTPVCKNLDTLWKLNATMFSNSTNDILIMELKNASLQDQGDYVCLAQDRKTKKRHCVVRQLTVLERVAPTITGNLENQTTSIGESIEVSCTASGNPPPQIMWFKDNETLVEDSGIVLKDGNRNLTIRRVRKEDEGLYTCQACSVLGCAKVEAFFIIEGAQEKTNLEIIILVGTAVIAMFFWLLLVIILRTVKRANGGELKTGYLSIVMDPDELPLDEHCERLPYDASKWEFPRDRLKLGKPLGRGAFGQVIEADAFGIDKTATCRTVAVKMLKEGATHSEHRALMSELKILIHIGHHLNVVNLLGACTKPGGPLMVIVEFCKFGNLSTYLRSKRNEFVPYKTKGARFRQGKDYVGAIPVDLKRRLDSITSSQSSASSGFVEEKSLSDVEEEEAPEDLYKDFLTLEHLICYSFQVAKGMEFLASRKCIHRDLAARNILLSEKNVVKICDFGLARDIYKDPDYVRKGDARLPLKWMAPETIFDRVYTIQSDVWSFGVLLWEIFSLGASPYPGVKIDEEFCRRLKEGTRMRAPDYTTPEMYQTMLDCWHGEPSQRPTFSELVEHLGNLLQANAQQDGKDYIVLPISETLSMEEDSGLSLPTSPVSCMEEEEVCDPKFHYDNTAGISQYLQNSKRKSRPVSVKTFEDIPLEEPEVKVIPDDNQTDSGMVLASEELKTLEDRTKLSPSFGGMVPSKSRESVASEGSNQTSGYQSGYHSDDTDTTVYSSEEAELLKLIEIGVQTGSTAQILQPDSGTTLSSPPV
# TEST_SUMMARY: Inhibition of human KDR autophosphorylation expressed in mouse NIH/3T3 cells
# Format: cell-based, NIH3T3

[
  {
    "SMILES_CODE": "NC(=O)[C@@H]1[C@H](Nc2nc(Nc3cnn(C[C@H]4CCCN4)c3)ncc2Cl)[C@H]2C=C[C@@H]1C2",
    "UNIT_DESCRIPTOR": "nM",
    "QUAL": "=",
    "IC50": 49
  },
  {
    "SMILES_CODE": "CNC(=O)[C@@H]1[C@H](Nc2nc(Nc3cnn(C)c3)ncc2C(F)(F)F)[C@H]2C=C[C@@H]1C2",
    "UNIT_DESCRIPTOR": "nM",
    "QUAL": ">",
    "IC50": 316
  },
  {
    "SMILES_CODE": "NC(=O)[C@@H]1[C@H](Nc2nc(Nc3cnn(C4CCNCC4)c3)ncc2Cl)[C@H]2C=C[C@@H]1C2",
    "UNIT_DESCRIPTOR": "nM",
    "QUAL": "=",
    "IC50": 55
  },
  {
    "SMILES_CODE": "CNC(=O)Cn1cc(Nc2ncc(Cl)c(N[C@H]3[C@@H](C(N)=O)[C@@H]4C=C[C@H]3C4)n2)cn1",
    "UNIT_DESCRIPTOR": "nM",
    "QUAL": "=",
    "IC50": 89
  },
  {
    "SMILES_CODE": "CCn1cc(Nc2ncc(Cl)c(N[C@H]3[C@@H](C(N)=O)[C@@H]4C=C[C@H]3C4)n2)cn1",
    "UNIT_DESCRIPTOR": "nM",
    "QUAL": "=",
    "IC50": 8
  }
]

----------
Entries annotated with measured remaining at 0.5 h
# TEST_SUMMARY: Metabolic stability of the compound in mouse liver microsomes assessed as compound remaining after 30 mins
# Format: ADME, Microsome
# COND: read-out: Stability

[
  {
    "SMILES_CODE": "Cn1cc(Nc2ncc(Cl)c(N[C@H]3[C@@H](C(N)=O)[C@@H]4C=C[C@H]3C4)n2)cn1",
    "UNIT_DESCRIPTOR": "%",
    "QUAL": "=",
    "remaining at 0.5 h": 44
  },
  {
    "SMILES_CODE": "NC(=O)[C@@H]1[C@H](Nc2nc(Nc3cnn(CCO)c3)ncc2Cl)[C@H]2C=C[C@@H]1C2",
    "UNIT_DESCRIPTOR": "%",
    "QUAL": "=",
    "remaining at 0.5 h": 45
  },
  {
    "SMILES_CODE": "NC(=O)Cn1cc(Nc2ncc(Cl)c(N[C@H]3[C@@H](C(N)=O)[C@@H]4C=C[C@H]3C4)n2)cn1",
    "UNIT_DESCRIPTOR": "%",
    "QUAL": "=",
    "remaining at 0.5 h": 68
  },
  {
    "SMILES_CODE": "NC(=O)[C@@H]1[C@H](Nc2nc(Nc3cnn(C[C@H]4CCCN4)c3)ncc2Cl)[C@H]2C=C[C@@H]1C2",
    "UNIT_DESCRIPTOR": "%",
    "QUAL": "=",
    "remaining at 0.5 h": 48
  },
  {
    "SMILES_CODE": "CNC(=O)Cn1cc(Nc2ncc(Cl)c(N[C@H]3[C@@H](C(N)=O)[C@@H]4C=C[C@H]3C4)n2)cn1",
    "UNIT_DESCRIPTOR": "%",
    "QUAL": "=",
    "remaining at 0.5 h": 88
  },
  {
    "SMILES_CODE": "NC(=O)[C@@H]1[C@H](Nc2nc(Nc3cnn(CC(=O)O)c3)ncc2Cl)[C@H]2C=C[C@@H]1C2",
    "UNIT_DESCRIPTOR": "%",
    "QUAL": ">",
    "remaining at 0.5 h": 95
  },
  {
    "SMILES_CODE": "NC(=O)[C@@H]1[C@H](Nc2nc(Nc3cnn(Cc4ccccc4)c3)ncc2Cl)[C@H]2C=C[C@@H]1C2",
    "UNIT_DESCRIPTOR": "%",
    "QUAL": "<",
    "remaining at 0.5 h": 1
  },
  {
    "SMILES_CODE": "CCn1cc(Nc2ncc(Cl)c(N[C@H]3[C@@H](C(N)=O)[C@@H]4C=C[C@H]3C4)n2)cn1",
    "UNIT_DESCRIPTOR": "%",
    "QUAL": "=",
    "remaining at 0.5 h": 13
  },
  {
    "SMILES_CODE": "NC(=O)[C@@H]1[C@H](Nc2nc(Nc3cnn([C@@H]4CCCNC4)c3)ncc2Cl)[C@H]2C=C[C@@H]1C2",
    "UNIT_DESCRIPTOR": "%",
    "QUAL": "=",
    "remaining at 0.5 h": 48
  },
  {
    "SMILES_CODE": "NC(=O)[C@@H]1[C@H](Nc2nc(Nc3cnn(CCN4CCOCC4)c3)ncc2Cl)[C@H]2C=C[C@@H]1C2",
    "UNIT_DESCRIPTOR": "%",
    "QUAL": "=",
    "remaining at 0.5 h": 4
  },
  {
    "SMILES_CODE": "NC(=O)[C@@H]1[C@H](Nc2nc(Nc3cnn(C4CCNCC4)c3)ncc2Cl)[C@H]2C=C[C@@H]1C2",
    "UNIT_DESCRIPTOR": "%",
    "QUAL": "=",
    "remaining at 0.5 h": 76
  }
]
